Source: paper doi:10.1101/2020.07.07.192294v1

target: CYP124 (Mycobacterium tuberculosis); test: biochemical; conditions: read-out: Kdapp ± SE (μM) / CYP124; binder
Sequence (P9WPP3 whole entry): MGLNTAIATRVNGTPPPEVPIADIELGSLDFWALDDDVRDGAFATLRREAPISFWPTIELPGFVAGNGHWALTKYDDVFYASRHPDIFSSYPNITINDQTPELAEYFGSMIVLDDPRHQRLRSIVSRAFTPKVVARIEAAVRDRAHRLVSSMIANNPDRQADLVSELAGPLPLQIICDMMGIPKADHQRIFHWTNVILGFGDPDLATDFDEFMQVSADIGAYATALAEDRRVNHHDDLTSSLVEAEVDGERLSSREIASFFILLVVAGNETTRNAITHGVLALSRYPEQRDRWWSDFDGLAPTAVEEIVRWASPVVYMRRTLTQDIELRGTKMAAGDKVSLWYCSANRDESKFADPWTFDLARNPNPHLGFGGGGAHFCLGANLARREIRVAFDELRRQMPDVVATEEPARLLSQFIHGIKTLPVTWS
measured_attribute: Kd (µM)
Give bare numbers, in µM.

query: Recall the reported Kd of `CC(C)CCC[C@@H](C)[C@H]1CC[C@H]2[C@@H]3[C@@H](O)CC4=CC(=O)CC[C@]4(C)[C@H]3CC[C@]12C` when tested on CYP124 (Mycobacterium tuberculosis).
result: 13.2
